These entries and their values trace back to patent US20240316047A1.

# assay-target: Human recombinant DHX9 protein (Homo sapiens (Human), UniProt Q08211)
# Sequence (Q08211 whole entry): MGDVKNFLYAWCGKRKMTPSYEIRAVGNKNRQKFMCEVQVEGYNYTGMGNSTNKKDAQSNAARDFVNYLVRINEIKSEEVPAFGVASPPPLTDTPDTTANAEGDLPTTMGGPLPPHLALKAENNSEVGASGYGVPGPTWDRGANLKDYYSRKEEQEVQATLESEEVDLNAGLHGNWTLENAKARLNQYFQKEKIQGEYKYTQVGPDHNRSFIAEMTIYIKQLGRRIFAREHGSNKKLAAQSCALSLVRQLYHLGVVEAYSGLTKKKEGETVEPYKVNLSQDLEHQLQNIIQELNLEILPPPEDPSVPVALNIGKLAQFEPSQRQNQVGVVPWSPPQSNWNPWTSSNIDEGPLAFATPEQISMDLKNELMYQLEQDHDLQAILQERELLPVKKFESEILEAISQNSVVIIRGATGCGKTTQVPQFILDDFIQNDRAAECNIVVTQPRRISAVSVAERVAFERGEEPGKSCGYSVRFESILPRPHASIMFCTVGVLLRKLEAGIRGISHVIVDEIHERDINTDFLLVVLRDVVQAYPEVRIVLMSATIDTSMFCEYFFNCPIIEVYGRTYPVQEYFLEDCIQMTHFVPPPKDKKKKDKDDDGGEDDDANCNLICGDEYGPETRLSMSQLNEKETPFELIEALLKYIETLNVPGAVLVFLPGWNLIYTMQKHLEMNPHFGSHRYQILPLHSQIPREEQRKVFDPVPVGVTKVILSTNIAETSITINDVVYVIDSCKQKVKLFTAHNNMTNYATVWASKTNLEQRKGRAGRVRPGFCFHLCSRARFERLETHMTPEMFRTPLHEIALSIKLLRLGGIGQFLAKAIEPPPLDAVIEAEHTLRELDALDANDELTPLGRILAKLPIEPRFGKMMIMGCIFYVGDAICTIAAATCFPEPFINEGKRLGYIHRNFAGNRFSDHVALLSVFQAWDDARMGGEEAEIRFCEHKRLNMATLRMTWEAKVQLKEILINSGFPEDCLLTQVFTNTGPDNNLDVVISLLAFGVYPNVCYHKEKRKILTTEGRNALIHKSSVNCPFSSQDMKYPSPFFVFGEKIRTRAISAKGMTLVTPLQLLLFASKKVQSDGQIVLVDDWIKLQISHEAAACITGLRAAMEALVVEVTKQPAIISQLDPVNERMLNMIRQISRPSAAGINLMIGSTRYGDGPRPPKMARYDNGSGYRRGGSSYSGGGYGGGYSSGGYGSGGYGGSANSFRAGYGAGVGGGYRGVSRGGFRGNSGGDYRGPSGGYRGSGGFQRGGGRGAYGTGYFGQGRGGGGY
# experiment-notes: DHX9 ATPase assay (ADP-Glo)
# Assay type: biochemical
experimental-endpoint: DHX9 Biochemical Max Inhibition

Observe how each entry below is paired with its result.
{"molecule": "COc1cc(N2CC(F)(F)C2)cnc1-c1cc(C(=O)Nc2cc(Cl)cc(NS(C)(=O)=O)c2)cn1C", "DHX9 Biochemical Max Inhibition": 82.4}
{"molecule": "CS(=O)(=O)Nc1cc(Cl)cc(NC(=O)c2cnn(-c3ncc(F)cc3OCc3cnco3)c2)c1", "DHX9 Biochemical Max Inhibition": 69.7}

(1) Cn1cc(C(=O)Nc2cc(Cl)cc(NS(C)(=O)=O)c2)cc1-c1cccc(N2CC(F)(F)C2)n1
(2) CC(Oc1cccnc1-c1cc(C(=O)Nc2cc(Cl)cc(NS(C)(=O)=O)c2)cn1C)c1cc(F)cc(C(F)(F)F)c1 (single isomer, unassigned)
Given 1 and given 2 , which shows the smaller recorded DHX9 Biochemical Max Inhibition? Returns: label corresponding to the selected item.
2
(2: 58.1, 1: 87.4)

---

# assay-target: Human recombinant DHX9 protein (Homo sapiens (Human))
# experiment-notes: DHX9 ATPase assay (ADP-Glo)
# Assay type: biochemical
experimental-endpoint: DHX9 Biochemical Max Inhibition (%)

{"compound": "CS(=O)(=O)Nc1cc(Br)cc(NC(=O)c2cc(-c3ncccn3)cs2)c1 [Example 25]", "DHX9 Biochemical Max Inhibition, %": 61.3}
{"compound": "CCS(=O)(=O)Nc1cc(F)cc(NC(=O)c2cc(-c3ccccc3)cs2)c1 [Example 74]", "DHX9 Biochemical Max Inhibition, %": 57.7}
{"compound": "CS(=O)(=O)Nc1cc(Br)cc(NC(=O)c2cnn(-c3ccc(F)cn3)c2)c1 [Example 39]", "DHX9 Biochemical Max Inhibition, %": 52.3}
{"compound": "CS(=O)(=O)Nc1cc(Cl)cc(NC(=O)c2cnn(-c3ncccc3OCc3ccncc3)c2)c1 [Example 64]", "DHX9 Biochemical Max Inhibition, %": 61.8}
{"compound": "CC(C)c1sc(C(=O)Nc2cc(Cl)cc(NS(C)(=O)=O)c2)cc1-c1ccccn1 [Example 233]", "DHX9 Biochemical Max Inhibition, %": 80.3}
{"compound": "Cc1sc(C(=O)Nc2cc(Cl)cc(NS(C)(=O)=O)c2)cc1-c1c(F)cc(F)cc1F [Example 378]", "DHX9 Biochemical Max Inhibition, %": 80.9}
{"compound": "Cc1cc(C)c2cc(C(=O)Nc3cc(Cl)cc(NS(C)(=O)=O)c3)cn2c1 [Example 328]", "DHX9 Biochemical Max Inhibition, %": 67.6}
{"compound": "Cc1cc(C(=O)Nc2cc(Cl)cc(NS(C)(=O)=O)c2)cn1-c1ccc(N2CCN(C)C(=O)C2)cn1 [Example 94]", "DHX9 Biochemical Max Inhibition, %": 72.4}
{"compound": "CP(C)(=O)c1cccnc1-n1cc(C(=O)Nc2cc(Cl)cc(NS(C)(=O)=O)c2)cn1 [Example 201]", "DHX9 Biochemical Max Inhibition, %": 66.1}
{"compound": "Cc1ccc2cc(C(=O)Nc3cc(Cl)cc(NS(C)(=O)=O)c3)cn2c1 [Example 300]", "DHX9 Biochemical Max Inhibition, %": 58.5}
